target.or.system: TrkB (Homo sapiens, UniProt Q16620)
Sequence (Q16620 32-822): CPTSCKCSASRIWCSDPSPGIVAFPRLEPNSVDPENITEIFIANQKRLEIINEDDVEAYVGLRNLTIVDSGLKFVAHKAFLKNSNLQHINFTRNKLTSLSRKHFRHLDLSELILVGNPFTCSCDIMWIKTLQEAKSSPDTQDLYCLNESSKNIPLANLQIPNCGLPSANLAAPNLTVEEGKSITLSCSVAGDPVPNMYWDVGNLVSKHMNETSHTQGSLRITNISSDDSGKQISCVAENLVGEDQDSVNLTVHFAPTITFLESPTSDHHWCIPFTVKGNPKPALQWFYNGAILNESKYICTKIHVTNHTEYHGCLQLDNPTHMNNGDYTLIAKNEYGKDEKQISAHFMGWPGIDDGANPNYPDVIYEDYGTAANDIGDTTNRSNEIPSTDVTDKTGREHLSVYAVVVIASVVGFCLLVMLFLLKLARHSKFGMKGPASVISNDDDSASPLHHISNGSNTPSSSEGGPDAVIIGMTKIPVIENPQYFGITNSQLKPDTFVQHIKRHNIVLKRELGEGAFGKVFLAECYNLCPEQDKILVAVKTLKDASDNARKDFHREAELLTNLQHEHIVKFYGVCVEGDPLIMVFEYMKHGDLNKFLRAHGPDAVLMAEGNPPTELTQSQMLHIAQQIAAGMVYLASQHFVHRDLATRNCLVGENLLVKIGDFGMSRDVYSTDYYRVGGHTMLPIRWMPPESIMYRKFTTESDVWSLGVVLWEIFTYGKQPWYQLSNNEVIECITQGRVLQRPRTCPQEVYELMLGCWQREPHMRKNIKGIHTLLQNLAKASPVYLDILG
experiment: Cell-based Enzyme Fragment Complementation (EFC) assay, U2OS cells over-expressing TrkB
particulars: compound pre-mixed with ligand, final ligand concentration 10 ng/mL, 3 hours at room temperature, read-out: TrkB potency expressed as EC50
The entries below come with measured pEC50 values attached.
Just the number, please; pEC50 means minus log10 of the concentration in mol/L.

{"columns": ["molecule", "target.or.system", "pEC50"],
 "data": [
  ["O=c1[nH]c(=O)n(-c2ccc(Oc3ccccc3)c(Cn3cc(F)cn3)c2)c(=O)n1-c1ccccc1", "TrkB (Homo sapiens, UniProt Q16620)", 6.74],
  ["CCc1ccc(Oc2ccc(-n3c(=O)[nH]c(=O)n(C)c3=O)cc2Cn2cccn2)cc1", "TrkB (Homo sapiens, UniProt Q16620)", 5.68],
  ["Cc1cccc(-n2c(=O)[nH]c(=O)n(-c3ccc(Oc4ccccc4)c(Cn4ccnc4)c3)c2=O)c1", "TrkB (Homo sapiens, UniProt Q16620)", 6.70]
]}

Query: pEC50; subject: `Cc1cccc(-n2c(=O)[nH]c(=O)n(-c3ccc(Oc4ccccc4)c(-n4cnc(C)c4)c3)c2=O)c1`
6.33

###

target.or.system: TrkB (Homo sapiens)
experiment: Cell-based Enzyme Fragment Complementation (EFC) assay, U2OS cells over-expressing TrkB
particulars: compound pre-mixed with ligand, final ligand concentration 10 ng/mL, 3 hours at room temperature, read-out: TrkB potency expressed as EC50
Hi! Just check whether EC50 is below 200 nM. Below gives 1 (yes), equal or above gives 0 (no).

{"columns": ["molecule", "target.or.system", "label"],
 "data": [
  ["COc1ccc(-n2c(=O)[nH]c(=O)n(-c3ccc(Oc4ccccc4)c(Cn4ccnc4)c3)c2=O)cc1", "TrkB (Homo sapiens)", "0 (no)"]
]}

Is EC50 of `O=c1[nH]c(=O)n(-c2ccc(Oc3ccccc3)c(Cn3ccnc3)c2)c(=O)n1-c1ccccc1` strictly below 200 nM?
0 (no)

Another compound to look at: `Cc1cccc(-n2c(=O)[nH]c(=O)n(-c3ccc(Oc4ccccc4)c(Cn4cc(F)cn4)c3)c2=O)c1`
1 (yes)

Another compound to look at: `Cc1cccc(-n2c(=O)[nH]c(=O)n(-c3ccc(Oc4ccccc4)c(OCc4cnc[nH]4)c3)c2=O)c1`
0 (no)

Another compound to look at: `Cc1cccc(-n2c(=O)[nH]c(=O)n(-c3ccc(Oc4ccc(F)cc4)c(Cn4ccnc4)c3)c2=O)c1`
1 (yes)

Another compound to look at: `CCn1cc(Cc2cc(-n3c(=O)[nH]c(=O)n(-c4ccccc4)c3=O)ccc2Oc2ccccc2)cn1`
1 (yes)

Another compound to look at: `O=c1[nH]c(=O)n(-c2ccc(Oc3ccccc3)c(Cn3cncn3)c2)c(=O)n1-c1ccccc1`
0 (no)

Another compound to look at: `Cc1cccc(-n2c(=O)[nH]c(=O)n(-c3ccc(Oc4ccccc4)c(OCc4ncc[nH]4)c3)c2=O)c1`
1 (yes)

Another compound to look at: `Cc1cccc(-n2c(=O)[nH]c(=O)n(-c3ccc(Oc4ccccc4)c(Cn4cnc(F)c4)c3)c2=O)c1`
1 (yes)

Another compound to look at: `Cn1c(=O)[nH]c(=O)n(-c2ccc(-c3ccccc3)c(Cn3cccn3)c2)c1=O`
0 (no)
